Entry source: patent US20240116985A1

Test: Solubility in PBS
Format: physicochemical
Please go through the items and note down their Solubility.
Output spec: scalar in µM, unitless text.

The recorded Solubility for CC[C@H](C)[C@@H]1NC(=O)[C@H](CC(=O)O)NC(=O)[C@]2(CC=CCCCC3(CCCC=CCCCCCC[C@@](C)(C(=O)N[C@@H](Cc4ccccc4)C(=O)N[C@@H](Cc4csc5ccccc45)C(=O)N[C@@H](CCC(N)=O)C(N)=O)NC(=O)[C@H](CCC(N)=O)NC(=O)[C@H](Cc4ccccc4)NC(=O)[C@H](C)NC(=O)[C@H](C)NC(=O)[C@H](CCCNC(=N)N)NC(=O)[C@H](CC(=O)O)NC3=O)NC1=O)CCCN2C(C)=O (some centres unmarked) [I-614] is 10

The recorded Solubility for CC(=O)N1CCC[C@]12CC=CCCCC1(CCCC=CCCCOC(=O)N3CC[C@@](C(=O)N[C@@H](Cc4ccsc4)C(=O)N[C@@H](Cc4csc5ccccc45)C(=O)N[C@@H](CCC(N)=O)C(=O)NC4CC4)(C3)NC(=O)[C@H](CC(N)=O)NC(=O)[C@H](Cc3ccccc3)NC(=O)[C@H](C)NC(=O)[C@H](C)NC(=O)[C@H](CC(=O)O)NC(=O)[C@H](CC(=O)O)NC1=O)NC(=O)[C@H](CC(C)(C)C)NC(=O)[C@H](CC(=O)O)NC2=O (some centres unmarked) [I-1375] is 50

The recorded Solubility for CC(=O)N1CCC[C@]12CC=CCCCC1(CCCC=CCCCCCC[C@@](C)(C(=O)N[C@@H](Cc3ccccc3)C(=O)N[C@@H](Cc3csc4ccccc34)C(=O)N[C@@H](Cc3c[nH]cn3)C(N)=O)NC(=O)[C@H](CC(N)=O)NC(=O)[C@H](Cc3ccccc3)NC(=O)[C@H](C)NC(=O)[C@H](C)NC(=O)[C@H](CC(=O)O)NC(=O)[C@H](CC(=O)O)NC1=O)NC(=O)[C@H](CCC(C)C)NC(=O)[C@H](CC(=O)O)NC2=O (some centres unmarked) [I-584] is 21

The recorded Solubility for CC(=O)N1CCC[C@]12CC=CCCCC1(CCCC=CCCCOC(=O)N3CC[C@@](C(=O)N[C@@H](Cc4ccsc4)C(=O)N[C@@H](Cc4csc5ccccc45)C(=O)N[C@@H](CO)C(N)=O)(C3)NC(=O)[C@H](CC(N)=O)NC(=O)[C@H](Cc3ccccc3)NC(=O)[C@H](C)NC(=O)[C@H](C)NC(=O)[C@H](CN(CC(=O)O)CC(F)(F)F)NC(=O)[C@H](CC(=O)O)NC1=O)NC(=O)[C@H](CC(C)(C)C)NC(=O)[C@H](CC(=O)O)NC2=O (some centres unmarked) [I-940] is 45

The recorded Solubility for CC(=O)N1CCC[C@]12CC=CCCCC1(CCCC=CCCCCCC[C@@](C)(C(=O)N[C@@H](Cc3ccccc3)C(=O)N[C@@H](Cc3csc4ccccc34)C(=O)N[C@@H](CCC(N)=O)C(N)=O)NC(=O)[C@H](CC(N)=O)NC(=O)[C@H](Cc3ccccc3)NC(=O)[C@H](C)NC(=O)[C@H](C)NC(=O)[C@H](CC(=O)O)NC(=O)[C@H](CC(=O)O)NC1=O)NC(=O)[C@H](C)NC(=O)[C@H](CC(=O)O)NC2=O (some centres unmarked) [I-343] is 50

---

Biological target: full-length beta-Catenin (Uniprot ID P35222) (Homo sapiens)
Construct: 10 nM full-length beta-Catenin (Uniprot ID P35222)
Sequence (P35222 1-781): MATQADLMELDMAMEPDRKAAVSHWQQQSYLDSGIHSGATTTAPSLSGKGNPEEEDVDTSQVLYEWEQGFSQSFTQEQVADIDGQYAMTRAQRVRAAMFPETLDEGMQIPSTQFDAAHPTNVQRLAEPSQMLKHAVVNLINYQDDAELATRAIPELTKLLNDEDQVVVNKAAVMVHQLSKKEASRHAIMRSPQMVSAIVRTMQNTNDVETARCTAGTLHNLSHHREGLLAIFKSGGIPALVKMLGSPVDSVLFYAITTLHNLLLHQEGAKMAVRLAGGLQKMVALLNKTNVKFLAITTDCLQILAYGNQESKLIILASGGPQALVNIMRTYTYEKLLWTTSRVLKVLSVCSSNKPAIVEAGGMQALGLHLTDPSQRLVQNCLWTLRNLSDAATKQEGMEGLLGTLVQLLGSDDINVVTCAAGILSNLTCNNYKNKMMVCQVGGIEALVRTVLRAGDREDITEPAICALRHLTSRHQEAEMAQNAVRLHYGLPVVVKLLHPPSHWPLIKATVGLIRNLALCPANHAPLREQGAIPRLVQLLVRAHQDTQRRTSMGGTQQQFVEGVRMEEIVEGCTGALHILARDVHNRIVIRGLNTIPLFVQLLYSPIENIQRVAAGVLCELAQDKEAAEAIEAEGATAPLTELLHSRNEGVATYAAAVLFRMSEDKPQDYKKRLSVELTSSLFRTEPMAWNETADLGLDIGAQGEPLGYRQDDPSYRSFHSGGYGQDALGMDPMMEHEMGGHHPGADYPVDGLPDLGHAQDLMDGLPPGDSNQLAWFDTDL
Assay: Fluorescence polarization IC50 (beta-catenin / 5FAM-TCF4 10-53 competition)
Assay type: binding
Settings: Table E2-1; read-out: beta-Catenin FP IC50
Please go through the items and note down their log10 of IC50.
Use the decimal logarithm of IC50 (nM).

The recorded log10 of IC50 for CC(=O)N1CCC[C@]12CC=CCCCC1(CCCC=CCCCCCC[C@@](C)(C(=O)N[C@@H](Cc3ccccn3)C(=O)N[C@@H](Cc3csc4ccccc34)C(=O)N[C@@H](CCC(N)=O)C(N)=O)NC(=O)[C@H](C(C)C)NC(=O)[C@H](Cc3ccccc3)NC(=O)[C@H](C)NC(=O)[C@H](C)NC(=O)[C@H](CCC(=O)O)NC(=O)[C@H](CC(=O)O)NC1=O)NC(=O)[C@H](C)NC(=O)[C@H](CC(=O)O)NC2=O (some centres unmarked) [I-384] is 2.25

The recorded log10 of IC50 for CC(=O)N1CCC[C@]12CC=CCCCC1(CCCC=CCCCCCC[C@@](C)(C(=O)N[C@@H](Cc3ccccc3)C(=O)N[C@@H](Cc3c[nH]c4ccccc34)C(=O)N[C@@H](CCC(N)=O)C(N)=O)NC(=O)[C@H](C(C)C)NC(=O)[C@H](Cc3cccc(F)c3)NC(=O)[C@H](C)NC(=O)[C@H](C)NC(=O)[C@H](CC(=O)O)NC(=O)[C@H](CC(=O)O)NC1=O)NC(=O)[C@H](C)NC(=O)[C@H](CC(=O)O)NC2=O (some centres unmarked) [I-265] is 3.58

The recorded log10 of IC50 for CC[C@H](C)[C@@H]1NC(=O)[C@H](CC(=O)O)NC(=O)[C@]2(CC=CCCCC3(CCCC=CCCCCCC[C@@](C)(C(=O)N[C@@H](Cc4ccccc4)C(=O)N[C@@H](Cc4c[nH]c5ccccc45)C(=O)N[C@@H](Cc4c[nH]cn4)C(N)=O)NC(=O)[C@H](C(C)C)NC(=O)[C@H](Cc4ccccc4)NC(=O)[C@H](C)NC(=O)[C@H](C)NC(=O)[C@H](CCC(=O)O)NC(=O)[C@H](CC(=O)O)NC3=O)NC1=O)CCCN2C(C)=O (some centres unmarked) [I-176] is 3.30

The recorded log10 of IC50 for CC(=O)N1CCC[C@]12CC=CCCCC1(CCCC=CCCCCCC[C@@](C)(C(=O)N[C@@H](Cc3ccccc3)C(=O)N[C@@H](Cc3csc4ccccc34)C(=O)N[C@@H](CCC(N)=O)C(N)=O)NC(=O)[C@H]([C@@H](C)O)NC(=O)[C@H](Cc3ccccc3)NC(=O)[C@H](C)NC(=O)[C@H](C)NC(=O)[C@H](CC(=O)O)NC(=O)[C@H](CC(=O)O)NC1=O)NC(=O)[C@H](C)NC(=O)[C@H](CC(=O)O)NC2=O (some centres unmarked) [I-342] is 1.77

The recorded log10 of IC50 for COc1ccc(C[C@@H]2NC(=O)[C@H](C)NC(=O)[C@H](C)NC(=O)[C@H](CCC(=O)O)NC(=O)[C@H](CC(=O)O)NC(=O)C3(CCCC=CCCCCCC[C@@](C)(C(=O)N[C@@H](Cc4ccccc4)C(=O)N[C@@H](Cc4c[nH]c5ccccc45)C(=O)N[C@@H](CCC(N)=O)C(N)=O)NC(=O)[C@H](C(C)C)NC2=O)CCCC=CC[C@]2(CCCN2C(C)=O)C(=O)N[C@@H](CC(=O)O)C(=O)N[C@@H](C)C(=O)N3)cc1 (some centres unmarked) [I-217] is 3.29

---

Assay: CHI Log D procedure
Format: physicochemical
Settings: pH 7.4
MEASURED_ATTRIBUTE: CHI Log D
// return just the number, without any unit appended

The recorded CHI Log D for CC[C@H](C)[C@H](NC(=O)[C@H](CC(=O)O)NC(C)=O)C(=O)N[C@]1(C)CCN(C)C(=O)OCC=CCCCCC[C@@](C)(C(=O)N[C@@H](Cc2ccccc2)C(=O)N[C@@H](Cc2c[nH]c3ccccc23)C(=O)N[C@@H](Cc2c[nH]cn2)C(N)=O)NC(=O)[C@H](CCC(N)=O)NC(=O)[C@H](Cc2ccccc2)NC(=O)[C@H](C)NC(=O)[C@H](C)NC(=O)[C@H](CC(=O)O)NC(=O)[C@H](CC(=O)O)NC1=O [I-149] is 1.27

The recorded CHI Log D for CC(=O)N1CCC[C@]12CC=CCCCC1(CCCC=CCCCCCC[C@@](C)(C(=O)N[C@@H](Cc3cccc(C(F)(F)F)c3)C(=O)N[C@@H](Cc3c[nH]c4ccccc34)C(=O)N[C@@H](CCC(N)=O)C(N)=O)NC(=O)[C@H](C(C)C)NC(=O)[C@H](Cc3ccccc3)NC(=O)[C@H](C)NC(=O)[C@H](C)NC(=O)[C@H](CC(=O)O)NC(=O)[C@H](CC(=O)O)NC1=O)NC(=O)[C@H](C)NC(=O)[C@H](CC(=O)O)NC2=O (stereo partly drawn) [I-250] is 2.299

The recorded CHI Log D for CC(=O)N1CCC[C@]12CC=CCCCC1(CCCC=CCCCCCC[C@@](C)(C(=O)N[C@@H](Cc3ccccc3)C(=O)N[C@@H](Cc3c[nH]c4ccccc34)C(=O)N[C@@H](CCC(N)=O)C(N)=O)NC(=O)[C@H](C(C)C)NC(=O)[C@H](Cc3ccccc3)NC(=O)[C@H](C)NC(=O)[C@H](C)NC(=O)[C@H](CCC(=O)O)NC(=O)[C@H](CCc3ccccc3)NC1=O)NC(=O)[C@H](C)NC(=O)[C@H](CC(=O)O)NC2=O (stereo partly drawn) [I-196] is 3.711
